Test system: Mammary tumor cell MDA-MB-453
Assay: Antitumor effect in vitro, proliferation inhibition (methylene blue staining, absorption at 660 nm)
Format: cell-based
Conditions: MDA-MB-453, 4000 cells, incubated 3 days with compound
IC50 (50% cell proliferation inhibitory concentration), MDA-MB-453 vs 0.3 µg/mL: less than gives rule met; not less than gives rule not met.

[[record]]
molecule = "O=C1CC(c2ccccc2)Cc2nnc(-c3cccc(C(F)(F)F)c3)cc21 (centres unmarked)"
group = "rule met"

[[record]]
molecule = "CC1Cc2nnc(-c3cccc(C(F)(F)F)c3)cc2C(O)C1 (centres unmarked) [Example 9]"
group = "rule not met"

[[record]]
molecule = "CC1Cc2nnc(-c3cccc(C(F)(F)F)c3)cc2C(O)C1 (centres unmarked) [Example 10]"
group = "rule not met"

[[record]]
molecule = "CCOC(=O)C1CC(=O)c2cc(-c3cccc(C(F)(F)F)c3)nnc2C1 (centres unmarked)"
group = "rule not met"

[[record]]
molecule = "O=C1CCCc2c1cc(-c1cccc(C(F)(F)F)c1)n[n+]2[O-]"
group = "rule not met"

